Where do these numbers come from? They come from patent US11780830B2.

systemUnderTest: recombinant human MAO-A (monoamine oxidase-A) (Homo sapiens, UniProt P21397)
Construct: purchased Sigma-Aldrich
Sequence (P21397 1-527): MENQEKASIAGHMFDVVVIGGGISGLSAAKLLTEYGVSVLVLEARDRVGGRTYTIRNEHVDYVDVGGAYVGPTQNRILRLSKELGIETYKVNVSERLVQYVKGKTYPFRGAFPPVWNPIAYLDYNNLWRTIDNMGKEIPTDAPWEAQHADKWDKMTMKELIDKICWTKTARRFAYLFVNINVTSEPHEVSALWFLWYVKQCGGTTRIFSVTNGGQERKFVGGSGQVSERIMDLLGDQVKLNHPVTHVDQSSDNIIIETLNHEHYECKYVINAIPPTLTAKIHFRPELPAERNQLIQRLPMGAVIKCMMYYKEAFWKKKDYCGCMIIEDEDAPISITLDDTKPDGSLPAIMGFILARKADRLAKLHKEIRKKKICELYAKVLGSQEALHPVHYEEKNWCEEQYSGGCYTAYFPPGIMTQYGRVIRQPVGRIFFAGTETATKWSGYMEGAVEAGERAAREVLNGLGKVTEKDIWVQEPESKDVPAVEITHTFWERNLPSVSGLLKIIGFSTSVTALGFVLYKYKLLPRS
assayNotes: Activity on recombinant human MAO-A, method similar to the VAP-1 assay
Type: biochemical
conditionParameters: substrate 0.5 mM tyramine; read-out: Inhibitory Activity (IC50, nM) MAO-A
Structures can show the parent of a compound that is named as a salt.
assayMetric: IC50 (nM)

> print(dat)
                                   compound  assaymetric  relationsymbol  observedvalue
1  NC/C(=C\F)Cn1ncn(Cc2ccc(/C=C/c3ccc(O)cc3)s2)c1=O [Example 116, hydrochloride]         IC50               =           4400
2  NC/C(=C/F)Cn1ncn(Cc2ccc(-c3ccc(N)cc3)s2)c1=O [Example 3, hydrochloride]         IC50               =          72000
3  NC/C(=C\F)Cn1ncn(Cc2cc3cc(-c4ccc(C(F)(F)F)nc4)ccc3s2)c1=O         IC50               >         100000
4  CC(C)(C)NS(=O)(=O)c1cncc(-c2ccc(Cn3cnn(C/C(=C/F)CN)c3=O)s2)c1 [Example 43, hydrochloride]         IC50               >         100000
5  CC1(C)Oc2cc(-c3ccc(Cn4cnn(C/C(=C/F)CN)c4=O)s3)ccc2NC1=O         IC50               >         100000
6  CC(C)c1nc(-c2ccc(-c3ccc(Cn4cnn(C/C(=C/F)CN)c4=O)s3)cc2)no1 [Example 37, hydrochloride]         IC50               =           5590
7  NC/C(=C\F)Cn1ncn(Cc2ccc(-c3ccc4c(c3)COC(=O)N4)s2)c1=O [Example 101, hydrochloride]         IC50               >         100000
